These measurements were taken from patent US20260035367A1.

molecular target: Recombinant human PKC-theta (His-tagged 362-706) (Homo sapiens); construct: Recombinant human PKC-theta (His-tagged 362-706); His; experiment: PKC-theta inhibition assay (HTRF KinEASE kit); type: biochemical; conditions: ATP 6.5 μM; STK substrate 525 nM; read-out: PKC-theta HTRF pIC50 (converted)
measuredQuantity: IC50 (nM)
Give bare numbers, in nM.

molecule | recordedMeasurement
CC[C@@]1(C)C(=O)Nc2nccc(-c3cc(C(F)(F)F)cc(N4CCN[C@@H](C)C4)n3)c21 (single isomer, unassigned) | 7.94
CC1(C)C(=O)Nc2nccc(-c3ccnc(N4CCNCC4)c3)c21 | 1260
CC[C@@H]1CNCCN1c1cc(Cl)cc(-c2ccnc3c2[C@](C)(O)C(=O)N3)n1 (single isomer, unassigned) | 0.794
CC1(C)CN(c2cc(Cl)cc(-c3ccnc4c3[C@](C)(O)C(=O)N4)n2)CCN1 (single isomer, unassigned) | 2.51
CC1C(=O)Nc2nccc(-c3cc(N4CCNCC4)cc(C(F)(F)F)c3)c21 (stereo not drawn) | 50.1

List the reported IC50 of each molecule below.
1. CN(C)Cc1cccc(-c2ccnc3[nH]c(=O)[nH]c23)c1
2. CC1(C)C(=O)Nc2nccc(-c3cccc(C4(CN)COC4)c3)c21
3. CC1(C)C(=O)Nc2nccc(-c3nc(N4CCNCC4)c(F)cc3Cl)c21

**A:**
1. 794
2. 200
3. 251

----------
target: Recombinant human PKC-theta (His-tagged 362-706) (Homo sapiens, UniProt Q04759); construct: Recombinant human PKC-theta (His-tagged 362-706); His; assay: PKC-theta inhibition assay (HTRF KinEASE kit); format: biochemical; settings: ATP 6.5 μM; STK substrate 525 nM; binned A to H; read-out: PKC-theta HTRF pIC50 (binned) (converted)
Sequence (Q04759 362-706): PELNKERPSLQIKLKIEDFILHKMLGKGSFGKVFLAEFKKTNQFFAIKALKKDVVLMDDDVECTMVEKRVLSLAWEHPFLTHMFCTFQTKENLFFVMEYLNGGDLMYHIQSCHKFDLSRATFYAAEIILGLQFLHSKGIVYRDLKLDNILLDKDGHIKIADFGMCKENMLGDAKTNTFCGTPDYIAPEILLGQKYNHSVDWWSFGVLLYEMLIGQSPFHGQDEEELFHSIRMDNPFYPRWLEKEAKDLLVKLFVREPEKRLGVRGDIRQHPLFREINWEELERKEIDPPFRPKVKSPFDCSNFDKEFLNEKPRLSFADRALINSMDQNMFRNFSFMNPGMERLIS
measuredQuantity: IC50

# count of solved cases: 2
compound | IC50
CC1(C)C(=O)Nc2nccc(-c3cc(F)cc(N4CCNCC4)c3)c21 | 31.6 to 100 nM
CC[C@]1(C)C(=O)Nc2nccc(-c3cc(Cl)cc(N4CCNC[C@H]4C)n3)c21 (single isomer, unassigned) | 3.16 to 10 nM

List the reported IC50 of each compound below.
1. CCC1(C)C(=O)Nc2nccc(-c3cc(C(F)(F)F)cc(N4CCN[C@@H](C)C4)n3)c21 (stereo partly shown)
2. C[C@H]1CN(c2cc(C(F)(F)F)cc(-c3ccnc4c3C(C)(C)C(=O)N4)n2)CCCN1
3. O=C1Nc2nccc(-c3cc(F)cc(N4CCNCC4)c3)c2C12CC2

**A:**
1: 3.16 to 10 nM; 2: 3.16 to 10 nM; 3: > 1000 nM

----------
target: Recombinant human PKC-theta (His-tagged 362-706) (Homo sapiens); construct: Recombinant human PKC-theta (His-tagged 362-706); His; test: PKC-theta inhibition assay (HTRF KinEASE kit); assay type: biochemical; conditions: ATP 6.5 μM; STK substrate 525 nM; binned A to H; read-out: PKC-theta HTRF pIC50 (binned) (converted)
Field: IC50. Provide a value for each of the compounds that follow.

List the reported IC50 of each compound below.
1. CC1C(=O)Nc2nccc(-c3cccc(N4CCNCC4)c3)c21 (stereo not shown)
2. CC[C@@]1(C)C(=O)Nc2nccc(-c3cc(C(C)(F)F)cc(N4CCNC[C@H]4C)n3)c21 (single isomer, unassigned)

**A:**
31.6 to 100 nM
3.16 to 10 nM

List the reported IC50 of each compound below.
1. C[C@@H]1CN(c2cc(Cl)cc(-c3ccnc4c3[C@](C)(O)C(=O)N4)n2)CCN1 (single isomer, unassigned)
2. C[C@H]1CN(c2cc(Cl)cc(-c3ccnc4c3C(C)(O)C(=O)N4)c2)CCN1 (stereo partly shown)
3. C[C@H]1NCCN(c2cc(C(F)(F)F)cc(-c3ccnc4c3C(C)(C)C(=O)N4)n2)[C@H]1C [Example 127]

**A:**
1. 1 to 3.16 nM
2. 3.16 to 10 nM
3. 1 to 3.16 nM

List the reported IC50 of each compound below.
1. C[C@@H]1CNCCN1c1cc(Cl)cc(-c2ccnc3c2[C@](C)(O)C(=O)N3)n1 (single isomer, unassigned)
2. CC[C@H]1CN(c2cc(C(F)(F)F)cc(-c3ccnc4c3[C@](C)(O)C(=O)N4)n2)CCN1 (single isomer, unassigned)

**A:**
1: 0.316 to 1 nM; 2: 0.316 to 1 nM

----------
target: Recombinant human PKC-theta (His-tagged 362-706) (Homo sapiens); construct: Recombinant human PKC-theta (His-tagged 362-706); His; experiment: PKC-theta inhibition assay (HTRF KinEASE kit); format: biochemical; conditions: ATP 6.5 μM; STK substrate 525 nM; read-out: PKC-theta HTRF pIC50 (converted)
Binary call on IC50 with cut-off 8 nM: strictly below means true (1), and equality or higher means false (0).

compound | qualitativeLabel
CC[C@H]1CN(c2ccc(Cl)c(-c3ccnc4c3[C@](C)(O)C(=O)N4)n2)CCN1 (single isomer, unassigned) | false (0)

**Q:** Report whether reported IC50 is lower than 8 nM (strictly) for C[C@@H]1NCCN(c2cc(C(F)(F)F)cc(-c3ccnc4c3[C@](C)(O)C(=O)N4)n2)[C@@H]1C
**A:** true (1)

**Q:** Report whether reported IC50 is lower than 8 nM (strictly) for O=c1[nH]c2nccc(-c3cccc(N4CCNCC4)c3)c2[nH]1
**A:** false (0)

**Q:** Report whether reported IC50 is lower than 8 nM (strictly) for CC[C@@]1(C)C(=O)Nc2nccc(-c3cc(C(C)(F)F)cc(N4CCN[C@@H](C)C4)n3)c21 (single isomer, unassigned)
**A:** true (1)

**Q:** Report whether reported IC50 is lower than 8 nM (strictly) for CC1(C)C(=O)Nc2nccc(-c3cc(C(F)F)cc(N4CCNCC4)n3)c21
**A:** true (1)

**Q:** Report whether reported IC50 is lower than 8 nM (strictly) for CC(C)[C@H]1CN(c2cccc(-c3ccnc4c3C(C)(C)C(=O)N4)c2)CCN1
**A:** false (0)

**Q:** Report whether reported IC50 is lower than 8 nM (strictly) for CC1(C)C(=O)Nc2nccc(-c3cccc(C4CCNCC4)c3)c21
**A:** false (0)

----------
molecular target: Recombinant human PKC-theta (His-tagged 362-706) (Homo sapiens); construct: Recombinant human PKC-theta (His-tagged 362-706); His; experiment: PKC-theta inhibition assay (HTRF KinEASE kit); assay type: biochemical; settings: ATP 6.5 μM; STK substrate 525 nM; read-out: PKC-theta HTRF pIC50 (converted)
measuredQuantity: IC50 (nM)
One number for each entry, in nM.

List the reported IC50 of each compound below.
1. O=c1[nH]c2nccc(-c3cc(F)cc(N4CCNCC4)c3)c2[nH]1
2. CC1(C)C(=O)Nc2nccc(-c3cc(C(F)(F)F)cc(N4CCN[C@H]5COC[C@H]54)n3)c21
3. CCC1(O)C(=O)Nc2nccc(-c3cc(C(F)(F)F)cc(N4CCN[C@@H](C)C4)n3)c21 (stereo partly shown)
4. O=c1[nH]c2nccc(-c3cc(Cl)cc(N4CCNCC4)c3)c2[nH]1

**A:**
1. 100
2. 3.98
3. 5.01
4. 316

----------
molecular target: Recombinant human PKC-theta (His-tagged 362-706) (Homo sapiens, UniProt Q04759); construct: Recombinant human PKC-theta (His-tagged 362-706); His; assay: PKC-theta inhibition assay (HTRF KinEASE kit); type: biochemical; conditions: ATP 6.5 μM; STK substrate 525 nM; binned A to H; read-out: PKC-theta HTRF pIC50 (binned) (converted)
measuredQuantity: IC50

# count of solved cases: 3
compound | recordedMeasurement
CCC1(O)C(=O)Nc2nccc(-c3cc(Cl)cc(N4CCN[C@@H](C)C4)n3)c21 (some centres unmarked) [Example 113] | 0.001 to 0.00316 µM
CC(c1cccc(-c2ccnc3[nH]c(=O)[nH]c23)c1)N(C)C (centres unmarked) [Example 1] | 0.316 to 1 µM
O=c1[nH]c2nccc(-c3cccc(N4CCNCC4)c3)c2[nH]1 [Example 2] | 0.316 to 1 µM

List the reported IC50 of each compound below.
1. O=C1Cc2c(-c3cccc(N4CCNCC4)c3)ccnc2N1 [Example 4]
2. CC1(C)C(=O)Nc2nccc(-c3cccc(N4CCNC(Cc5cccnc5)C4)c3)c21 (centres unmarked) [Example 67]

**A:**
1. 0.1 to 0.316 µM
2. 0.0316 to 0.1 µM

----------
target: Recombinant human PKC-theta (His-tagged 362-706) (Homo sapiens); construct: Recombinant human PKC-theta (His-tagged 362-706); His; test: PKC-theta inhibition assay (HTRF KinEASE kit); assay type: biochemical; conditions: ATP 6.5 μM; STK substrate 525 nM; read-out: PKC-theta HTRF pIC50 (converted)
Field: IC50. Provide a value for each of the molecules that follow.
One number for each entry, in nM.

# count of solved cases: 5
molecule | IC50 [nM]
CC1(C)C(=O)Nc2nccc(-c3cc(OC(F)F)cc(N4CCNCC4)n3)c21 | 31.6
C[C@H]1CN(c2cc(-c3ccnc4c3[C@@](C)(O)C(=O)N4)cc(C(F)(F)F)c2)CCN1 (single isomer, unassigned) [Example 81] | 25.1
O=c1[nH]c2nccc(-c3cccc(CN4CCNCC4)c3)c2[nH]1 | 3980
CC1(C)C(=O)Nc2nccc(-c3cc(C(F)(F)F)cc(N4CCNC[C@H]4CO)n3)c21 | 2.51
C[C@H]1CNCCN1c1cc(Cl)cc(-c2ccnc3c2[C@](C)(O)C(=O)N3)n1 (single isomer, unassigned) | 5.01

List the reported IC50 of each molecule below.
1. CC1(C)C(=O)Nc2nccc(-c3cc(F)cc(N4CCNCC4)c3)c21
2. C[C@@H]1NCCN(c2cc(C(F)(F)F)cc(-c3ccnc4c3C(C)(C)C(=O)N4)n2)[C@@H]1C
3. C[C@@H]1CNCCN1c1cc(F)cc(-c2ccnc3c2C(C)(O)C(=O)N3)c1 (some centres unmarked)
4. C[C@H]1CN(c2cc(C(F)(F)F)cc(-c3ccnc4c3[C@](C)(O)C(=O)N4)n2)CCN1 (single isomer, unassigned)
5. C[C@H]1CN(c2cc(C(F)(F)F)cc(-c3ccnc4c3C(C)(C)C(=O)N4)n2)CCCN1
6. CC[C@@H]1CNCCN1c1cc(C(F)(F)F)cc(-c2ccnc3c2[C@](C)(O)C(=O)N3)n1 (single isomer, unassigned)

**A:**
1. 31.6
2. 7.94
3. 5.01
4. 2
5. 5.01
6. 0.501
